measurement protocol: GI50 given in Tables 4-6 (test not described)
Format: cell-based
test parameters: cell line not stated
Exercise: for every item that follows, state its recorded GI50.

Short answer for `Cc1nsc(NC(=O)N2CCC(F)CC2)n1` : GI50 was > 100 µM

The compound `Cc1c(-c2ccccc2F)[nH]c2ccc(CNC(=O)c3ccc(CO)o3)cc12` showed GI50 equal to > 100 µM

GI50 reading for `Cc1cccc2c(-c3ccc(O)c(F)c3)c[nH]c12` : 99 µM

Measured GI50 of `CC(=O)NCCC(=O)NCc1ccc2[nH]c(-c3ccccc3F)c(C)c2c1` : > 100 µM

Note to self: GI50 recorded for `Cc1nsc(NC(=O)N2CCC(Cn3ccnc3)CC2)n1` was > 100 µM

Lab note: `Cc1ccccc1-c1cc(O)c2c(c1)CN(c1nc(C(N)=O)cs1)CCO2` gave GI50 of > 100 µM

Lab book: GI50 of `Cc1ccc2[nH]cc(-c3cc(CN)ccc3F)c2c1` noted as 22.1 µM

# GI50 of `Cc1nc(N)cc(N2CCOc3c(O)cc(-c4ccccc4C)cc3C2)n1` = 51.9 µM

Just so you know, measured GI50 for `CNC(=O)c1ccc(-c2c[nH]c3c(C)cccc23)cc1` came out at > 100 µM

Note to self: GI50 recorded for `Cc1ccccc1-c1cc(O)c2c(c1)CN(c1nccs1)CCO2` was > 100 µM

According to the records, this compound `Cc1c(-c2ccccc2F)[nH]c2ccc(CNC(=O)C3=NNC(=O)CC3)cc12` displays GI50 of > 100 µM

###

measurement protocol: Cytotoxicity counter screens to the reporter assays
Assay type: cell-based
test parameters: human, PC3-AR-V7-EGFP cells; counter screens to M2H, PSA-Luc, AR-V7 reporters; read-out: IC50 in cytotoxicity counter screen
recorded endpoint: IC50 at 24 h
Write the quantity with the unit trailing the number.

The recorded IC50 at 24 h for Cc1nc(N)cc(N2CCOc3c(O)cc(-c4ccccc4C)cc3C2)n1 [Compound S1-2] is 45.9 µM

###

system tested: AR-LBD and TIF2 (Homo sapiens)
Construct: AR-LBD amino acids 658-919 expressed as a fusion protein with Gal4-DBD
Sequence (P10275 658-919): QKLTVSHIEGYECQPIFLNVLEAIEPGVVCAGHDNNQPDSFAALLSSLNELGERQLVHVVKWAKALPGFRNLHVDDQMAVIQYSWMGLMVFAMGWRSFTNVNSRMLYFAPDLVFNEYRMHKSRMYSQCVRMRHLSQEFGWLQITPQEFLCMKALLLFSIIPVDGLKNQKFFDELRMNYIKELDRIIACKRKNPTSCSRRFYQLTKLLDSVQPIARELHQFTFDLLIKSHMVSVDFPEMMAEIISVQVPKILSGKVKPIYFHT
measurement protocol: AR-TIF2 mammalian 2-hybrid assay
test parameters: HEK 293 cells; read-out: Inhibition DHT-induced AR-TIF2 mammalian 2 hybrid assay IC50
recorded endpoint: pIC50
Keep in mind that pIC50 stands for -log10 of concentration in molar terms.

Reported pIC50 for `Cc1nsc(NC(=O)N2CCC(Sc3ccccc3C)CC2)n1` was 7.30

Quick note, pIC50 for `Cc1c(-c2ccccc2F)[nH]c2ccc(CNC(=O)CCc3cn[nH]c3)cc12` landed at 6.05

Lab note: measured pIC50 of `Cc1ccccc1-c1cc(O)c2c(c1)CN(c1nc(C(N)=O)cs1)CCO2` was 6.04
